- Test system: B16-F1 cells
- EXPERIMENT: Cell transfection with SEAP plasmid, B16-F1
- Format: cell-based, mouse
- MEASUREMENT SETUP: Figure 5B; in complex with pVitro14 LGFP SEAP plasmid, 48 hours, SEAP reporter gene expression
READOUT NAME: ability to transfect B16-F1 cells

[[record]]
compound = "CCCCCCCCCCCCCCCC(=O)OCC(CSC[C@H](N)C(=O)N[C@@H](COC(=O)c1ccc(Cn2c(O)nc3c(N)nc(NCCCC)nc32)cc1)C(=O)NCCCNCCCCNCCCN)OC(=O)CCCCCCCCCCCCCCC (some centres unmarked) [CL514]"
obs_value = "transfect B16-F1 cells"

[[record]]
compound = "CCCCCCCCCCCCCCCC(=O)OCC(CSC[C@H](N)C(=O)NCCCNCCCCNCCCNC(=O)CNC(=O)c1ccc(Cn2c(O)nc3c(N)nc(NCCCC)nc32)cc1)OC(=O)CCCCCCCCCCCCCCC (some centres unmarked) [CL553]"
obs_value = "transfect B16-F1 cells"

[[record]]
compound = "CCCCCCCCCCCCCCCC(=O)OCC(CSC[C@H](N)C(=O)N[C@@H](CCC(=O)NCCCNCCCCNCCCN)C(=O)Nc1ccc(Cn2c(O)nc3c(N)nc(NCCCC)nc32)cc1)OC(=O)CCCCCCCCCCCCCCC (some centres unmarked) [CL527]"
obs_value = "transfect B16-F1 cells"

